For each of the compounds below, state its Lipophilic Efficiency (logD).
System: parental HEK cells
Test: HEK parental Agonist Counterscreen Assay (non-transfected cells)
Format: cell-based
Conditions: HEK Agonist Activity section
Give bare numbers.

INSERT INTO results (compound, recorded_result) VALUES
  ('Cc1ccc(CN2CCCN(CC(=O)NC3CCCCCCC3)C2=O)c(Cl)c1', 1.38),
  ('Cc1ccc(NC(=O)Cn2ncc3c2-c2ccccc2OC3)cc1F', 1.72),
  ('COc1ccc(CCC(=O)Nc2ccc(/C(N)=N/O)cc2)cc1', 2.61),
  ('Cc1ccc2c(c1)-c1c(cnn1CC(=O)Nc1ncccc1C)CO2', 1.97),
  ('Cc1cccc(-n2cnc3cc(C(=O)NCc4ccc5c(c4)OCO5)ccc32)c1', 0.80),
  ('COc1ccc(CC(=O)NNC(=O)C(C)Oc2ccc(Cl)cc2Cl)cc1OC (stereo not drawn)', 1.69),
  ('O=C(Cn1ncc2c1-c1ccccc1OC2)Nc1ccccn1', 3.00),
  ('COC(=O)c1ccc(NC(=O)CNC(=O)C2CCCCC2)c(C)c1', 2.12),
  ('Cc1ccccc1CN1CCC(O)(c2ccc(Cl)c(C(F)(F)F)c2)CC1', 1.43),
  ('Cc1ccc2c(c1)CCCN2CC(=O)N(C)c1c(N)n(Cc2ccccc2)c(=O)[nH]c1=O', 2.32);

Value sought for every listed compound: Lipophilic Efficiency (logD).
1. Cc1ccccc1NC(=O)CSC1=C(C#N)C(c2ccccc2C(F)(F)F)C2=C(CCCC2=O)N1 (stereo not drawn)
2. CNc1ccc(CCNC(=O)Cn2c3ccccc3c3nc(=O)cc(C)n32)cc1
3. Cc1cc(C)c(/C=C2/NC(=N)NC2=O)c(C)c1
4. COC(=O)c1ccc(CSc2nnc(N)s2)cc1
5. Cc1ccc(SCC(=O)Nc2nnc(-c3ccc(Cl)cc3)o2)cc1
6. Cc1cc(=O)n2nc(NCc3ccccc3Cl)nc2[nH]1
7. O=C(Cn1nnc2c1-c1ccccc1OC2)Nc1cccc(Cl)c1
8. CS(=O)(=O)c1cccc(C(=O)NCCCN2CCc3ccccc32)c1

−0.16
2.04
1.45
2.26
0.84
2.16
1.77
2.95

Could I get Lipophilic Efficiency (logD) for every one of these entries?
1. Cc1ccc(SCC(=O)Nc2nnc(-c3ccco3)o2)cc1
2. Cc1ccc(CCC(=O)NNC(=O)CCc2ccccc2)c(Br)c1
3. O=C(Cn1ncc2c1-c1ccccc1OC2)Nc1ccc(Cl)cc1 [SR-01000152099]
4. Cc1ccc(SCC(=O)NNC(=O)CCC(=O)c2cccs2)cc1
5. CCCc1ccccc1C1=CCC(NC(=O)Cn2ncc3c2-c2ccccc2CC3)=C1
6. CSc1ccc(CCNC(=O)Cn2ncc3c(=O)oc4ccccc4c32)cc1
7. O=C(CN1N=C(c2ccc(Cl)cc2)CCC1=O)NCCN1CCc2ccccc2C1

[2.38, 1.40, 2.23, 2.43, 1.70, 2.04, 2.82]

src = patent US20250099420A1
